Tested on: PC-3 prostate
Assay: NCI-60 one-dose screen, 48 h (100 = growth as untreated, 0 = no growth, -100 = all killed)
Conditions: 10 µM unless noted
The panel holds about 83,000 compounds, 20% with a hit somewhere; the sample as a whole holds those more often. Active and inactive are the calls of the source. The calls were made as follows: active = growth percent below 10; inactive = the rest.
Endpoint Label: growth

Field: example entries. Status: answers known.
>  <Compound>
O=C(CCCN1CCOCC1)Nc1ccc(Cn2nnc3c2C(=O)c2nnn(Cc4ccc(NC(=O)CCCN5CCOCC5)cc4)c2C3=O)cc1

>  <growth>
55.5% (inactive)

$$$$
>  <Compound>
CC(C)C1=C[C@@]23CC[C@@H]4[C@](C)(CCC[C@@]4(C)C(=O)OCC#CCN4CCCC4)[C@H]2C[C@@H]1[C@H]1C(=O)OC(=O)[C@H]13

>  <growth>
77.8% (inactive)

$$$$

stdin: Returns the measured growth for the input compound. Input: `Cl/C(=N\Nc1ccccc1)c1ccccc1`
stdout: 78% (inactive)

stdin: Another: `O=C1/C(=C\c2cn(C(=O)c3ccc(Cl)cc3)c3ccccc23)c2ccccc2N1c1c(Cl)cccc1Cl`
stdout: 71.9% (inactive)

----------
Test system: HCT-116 colon
Experiment: NCI-60 one-dose screen, 48 h
Conditions: 10 µM unless noted
This is part of a sample that, as a whole, favours compounds with a hit. Of some 83,000 tested, about 20% had one in any assay. Activity calls are given as the source filed them. Rule for the calls: active = growth percent below 10; inactive = the rest.
Parameter call: string, one of 1 (yes) = active, 0 (no) = inactive

>  <Compound>
Cc1ccc(Nc2c(C(N)=O)cnc3ccc(-c4csc(N)n4)cc23)cc1

>  <Class Assignment>
0 (no)

$$$$

Now let's try a different one.
stdin: Record lookup: outcome of this test for CCN(CC)CC(C)Nc1ccc([N+](=O)[O-])c2sc3ccccc3c(=O)c12 (centres undefined) ?
stdout: 0 (no)

----------
System: PC-3 prostate
Test: NCI-60 one-dose screen, 48 h (100 = growth as untreated, 0 = no growth, -100 = all killed)
Details: 10 µM unless noted
This is part of a sample that, as a whole, favours compounds with a hit. Of some 83,000 tested, about 20% had one in any assay.
Mark 1.0 only when growth stays strictly below 50%. Values equal to the cut-off are 0.0.

>  <Compound>
NS(=O)(=O)N(c1cc(C(F)(F)F)cc(C(F)(F)F)c1)C1CCN(Cc2ccc(F)cc2)CC1

>  <Measurement Target>
PC-3 prostate

>  <Class Assignment>
1.0

$$$$
>  <Compound>
Oc1ccccc1/C=N/Nc1ccc2ccccc2n1

>  <Measurement Target>
PC-3 prostate

>  <Class Assignment>
0.0

$$$$
>  <Compound>
O=C1/C(=C/c2ccc(Cl)cc2Cl)CN(S(=O)(=O)c2ccccc2)C/C1=C\c1ccc(Cl)cc1Cl

>  <Measurement Target>
PC-3 prostate

>  <Class Assignment>
1.0

$$$$

stdin: I wonder whether `COc1ccc2nc3cc(Cl)ccc3c(N3CCN(c4nccc(NCc5ccccc5)n4)CC3)c2c1` has growth below 50%. Can you tell?
stdout: 0.0

stdin: Another: `COc1ccc(CCN2CC=Cn3c2nc2ccccc2c3=O)cc1`
stdout: 1.0

stdin: Another: `CN(C)CCCC(=O)Nc1ccc(Cn2nnc3c2C(=O)c2nnn(Cc4ccc(NC(=O)CCCN(C)C)cc4)c2C3=O)cc1`
stdout: 0.0

stdin: Another: `CCCCCCCCCCCCCCCCCCSC1=CC(=O)C(OC)=C(OC)C1=O`
stdout: 0.0

stdin: Another: `CC/C(=C(\c1ccccc1)c1ccc(OCCNC)cc1)c1ccccc1`
stdout: 1.0

stdin: Another: C=C1CCC2C3(C)COC(c4cccc(Cl)c4)OC3CCC2(C)C1/C=C/C1=CCOC1=O (stereo unspecified)
stdout: 1.0

stdin: Another: CCCCCCCCCCCCCCCCCCNC(=O)[C@H]1CSC(c2ccc(OC)c(F)c2)N1 (stereo partly specified)
stdout: 0.0

stdin: Another: `COc1cc2nc3cc([N+](=O)[O-])ccc3c(NCCCNCC(C)(C)O)c2cc1OC`
stdout: 1.0
